Hey, just so you know, these numbers are from patent US20080311122A1.

Measured IC50, inhibition of rHMG1 stimulated IL-6 release from human PBMC of individual entries
Target: T1, recombinant HMG1 purified from E. coli as a calmodulin binding protein (CBP) fusion protein (human, UniProt A9RA84 1-215 (Papio anubis entry))
T1 sequence: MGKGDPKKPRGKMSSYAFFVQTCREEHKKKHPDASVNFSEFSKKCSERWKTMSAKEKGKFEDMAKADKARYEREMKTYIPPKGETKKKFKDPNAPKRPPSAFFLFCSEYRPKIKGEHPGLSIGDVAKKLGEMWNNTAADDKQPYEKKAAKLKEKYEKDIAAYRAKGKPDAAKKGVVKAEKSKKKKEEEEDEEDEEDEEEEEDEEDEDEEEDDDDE
Experiment: cell-based or functional assay
Quantity Kind: IC50, inhibition of rHMG1 stimulated IL-6 release from human PBMC

Binder: anti-HMG1 antibody G16 (antibody, V domains shown) VH: EVQLLESGGGLVQPGGSLRLSCAASGFTFSWYKMTWVRQAPGKGLEWVSSISPSGGFTSYADSVKGRFTISRDNSKNTLYLQMNSLRAEDTAVYYCARDLDIRHAFDIWGQGTMVTVSS VL: DIQMTQSPGTLSLSPGESGTLSCRASESVSSRHFAWYQQKPGQAPRLLIYGASSRPTGIPDRFSGSGSGTDFTLTLSRLEPEDFAVYFCQYYGSSPYTFGGGTKVEMK
Result: 1.06 nM

Binder: anti-HMG1 antibody G20 (antibody, V domains shown) VH: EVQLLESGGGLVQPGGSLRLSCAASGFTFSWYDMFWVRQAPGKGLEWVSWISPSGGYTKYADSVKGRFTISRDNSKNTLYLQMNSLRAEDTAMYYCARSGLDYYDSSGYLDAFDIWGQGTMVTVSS VL: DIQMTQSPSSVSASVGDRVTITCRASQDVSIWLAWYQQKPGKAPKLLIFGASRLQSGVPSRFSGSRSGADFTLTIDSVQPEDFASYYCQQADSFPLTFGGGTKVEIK
Result: 0.652 nM

Binder: anti-HMG1 antibody G4 (antibody, V domains shown, also called ATCC PTA-6258) VH: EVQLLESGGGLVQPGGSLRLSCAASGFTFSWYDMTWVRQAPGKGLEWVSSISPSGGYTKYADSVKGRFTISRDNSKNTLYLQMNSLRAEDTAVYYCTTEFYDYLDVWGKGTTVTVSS VL: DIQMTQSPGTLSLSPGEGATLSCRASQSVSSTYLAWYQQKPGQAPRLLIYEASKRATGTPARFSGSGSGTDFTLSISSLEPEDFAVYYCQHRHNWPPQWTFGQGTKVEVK
Result: 0.9 nM

Binder: anti-HMG1 antibody G9 (antibody, V domains shown) VH: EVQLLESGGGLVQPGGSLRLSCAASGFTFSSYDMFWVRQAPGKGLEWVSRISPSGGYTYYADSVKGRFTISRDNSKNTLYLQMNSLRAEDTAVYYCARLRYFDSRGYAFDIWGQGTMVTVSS VL: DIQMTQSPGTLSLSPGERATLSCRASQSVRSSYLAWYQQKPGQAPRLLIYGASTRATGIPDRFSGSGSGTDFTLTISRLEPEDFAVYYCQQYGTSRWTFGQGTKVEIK
Result: 0.246 nM

Binder: anti-HMG1 antibody G2 (antibody, V domains shown) VH: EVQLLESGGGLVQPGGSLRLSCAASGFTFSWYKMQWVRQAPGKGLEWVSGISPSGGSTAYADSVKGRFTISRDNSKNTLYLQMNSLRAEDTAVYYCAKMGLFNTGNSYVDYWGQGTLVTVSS VL: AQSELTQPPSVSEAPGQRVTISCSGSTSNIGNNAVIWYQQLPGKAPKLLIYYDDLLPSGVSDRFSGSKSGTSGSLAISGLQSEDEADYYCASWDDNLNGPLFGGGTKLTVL
Result: 0.994 nM
